Values compiled from patent US20110028444A1.

- Test Description: Solubility test: maximum solubility in water
- Format: physicochemical
- Experimental Context: 25 °C, water, thermodynamic from solid

[
  {
    "Molecule": "CS(=O)(=O)O.C[C@@H]1Sc2c(C(=O)O)c(=O)c3cc(F)c(N4CCNCC4)cc3n21 [Compound 5]",
    "solubility, mg/mL": 490
  },
  {
    "Molecule": "CS(=O)(=O)O.C[C@H]1Sc2c(C(=O)O)c(=O)c3cc(F)c(N4CCNCC4)cc3n21 [Compound 9]",
    "solubility, mg/mL": 501
  },
  {
    "Molecule": "CC1Sc2c(C(=O)O)c(=O)c3cc(F)c(N4CCNCC4)cc3n21.CS(=O)(=O)O (racemic) [Ulifloxaci mesylate (±), reference compound]",
    "solubility, mg/mL": 340
  }
]

----------
- Test system: Staphylococcus aureus
- Test Description: In-vitro antibacterial test, agar dilution MIC
- Format: cell-based
- Experimental Context: Staphylococcus aureus; agar dilution; read-out: In-vitro MIC

[
  {
    "Compound": "CC1Sc2c(C(=O)O)c(=O)c3cc(F)c(N4CCNCC4)cc3n21 (racemic) [Ulifloxacin, reference compound]",
    "MIC (µg/mL)": 0.5
  },
  {
    "Compound": "CS(=O)(=O)O.C[C@H]1Sc2c(C(=O)O)c(=O)c3cc(F)c(N4CCNCC4)cc3n21 [Compound 9]",
    "MIC (µg/mL)": 2
  },
  {
    "Compound": "C[C@H]1COc2c(N3CCN(C)CC3)c(F)cc3c(=O)c(C(=O)O)cn1c23 [Levofloxacin, reference compound]",
    "MIC (µg/mL)": 0.5
  },
  {
    "Compound": "C[C@H]1Sc2c(C(=O)O)c(=O)c3cc(F)c(N4CCNCC4)cc3n21 [Compound 3]",
    "MIC (µg/mL)": 2.83
  },
  {
    "Compound": "C[C@@H]1Sc2c(C(=O)O)c(=O)c3cc(F)c(N4CCNCC4)cc3n21 [Compound 2]",
    "MIC (µg/mL)": 0.177
  },
  {
    "Compound": "CC1Sc2c(C(=O)O)c(=O)c3cc(F)c(N4CCNCC4)cc3n21.CS(=O)(=O)O (racemic) [Ulifloxaci mesylate (±), reference compound]",
    "MIC (µg/mL)": 0.5
  }
]

----------
- System: Escherichia coli
- Test Description: In-vitro antibacterial test, agar dilution MIC
- Format: cell-based
- Experimental Context: Escherichia coli; agar dilution; read-out: In-vitro MIC
Entries and their MIC

[
  {
    "Compound": "C[C@H]1COc2c(N3CCN(C)CC3)c(F)cc3c(=O)c(C(=O)O)cn1c23 [Levofloxacin, reference compound]",
    "Value Units": "µg/mL",
    "MIC": 0.0313
  },
  {
    "Compound": "C[C@@H]1Sc2c(C(=O)O)c(=O)c3cc(F)c(N4CCNCC4)cc3n21",
    "Value Units": "µg/mL",
    "MIC": 0.0125
  },
  {
    "Compound": "C[C@H]1Sc2c(C(=O)O)c(=O)c3cc(F)c(N4CCNCC4)cc3n21",
    "Value Units": "µg/mL",
    "MIC": 0.225
  },
  {
    "Compound": "CC1Sc2c(C(=O)O)c(=O)c3cc(F)c(N4CCNCC4)cc3n21 (racemic) [Ulifloxacin, reference compound]",
    "Value Units": "µg/mL",
    "MIC": 0.08
  },
  {
    "Compound": "O=C(O)c1cn(C2CC2)c2cc(N3CCNCC3)c(F)cc2c1=O [Ciprofloxacin, reference compound]",
    "Value Units": "µg/mL",
    "MIC": 0.0313
  }
]
